assay: Drug excretion in feces of female cynomolgus monkey treated with [14C]sunitinib at 6 mg/kg, po administered as single dose by liquid scintillation counting; assay type: ADME, organism-based, Macaca fascicularis; parameters: dose 6 mg/kg, dosed compound name [14C]Sunitinib, route oral; conditions: in vivo
Give Y when the value for Compound recovery is at least 6%. Give N when it is less.

> print(dat)
                                   molecule  label.class
1  Cc1[nH]c(/C=C2\C(=O)Nc3ccc(F)cc32)c(C)c1C(=O)NCC(=O)O            Y
2  CCN(CC)CCNC(=O)c1c(C)[nH]c(CC2C(=O)Nc3ccc(F)cc32)c1C (configuration not stated)            N
3  CC[N+]([O-])(CC)CCNC(=O)c1c(C)[nH]c(/C=C2\C(=O)Nc3ccc(F)cc32)c1C            N

Please indicate if the recorded Compound recovery for `Cc1[nH]c(/C=C2\C(=O)Nc3ccc(F)cc32)c(C)c1C(=O)NCCN` meets or exceeds 6%. N

Here is the next molecule: CCNCC(O)NC(=O)c1c(C)[nH]c(/C=C2\C(=O)Nc3ccc(F)cc32)c1C (configuration not stated) N

Continue with CCNCCNC(=O)c1c(C)[nH]c(C=C2C(=O)Nc3ccc(F)cc32)c1C (mixture of isomers) Y

----------
assay: Drug excretion in feces of male cynomolgus monkey treated with [14C]sunitinib at 6 mg/kg, po administered as single dose by liquid scintillation counting; format: ADME, organism-based, Macaca fascicularis; design: dose 6 mg/kg, dosed compound name [14C]Sunitinib, route oral; conditions: in vivo
Compound recovery by entry:

> print(dat)
                                   molecule  assay.result
1  CCNCCNC(=O)c1c(C)[nH]c(C=C2C(=O)Nc3ccc(F)cc32)c1C (mixture of isomers)         30.7%
2  Cc1[nH]c(/C=C2\C(=O)Nc3ccc(F)cc32)c(C)c1C(=O)NCCN            1%
3  CCN(CC)CCNC(=O)c1c(C)[nH]c(/C=C2\C(=O)Nc3ccc(O)cc32)c1C          6.3%

What value of Compound recovery has been recorded for this entry: `CC[N+]([O-])(CC)CCNC(=O)c1c(C)[nH]c(/C=C2\C(=O)Nc3ccc(F)cc32)c1C` 3.2%

Query CCNCC(O)NC(=O)c1c(C)[nH]c(/C=C2\C(=O)Nc3ccc(F)cc32)c1C (configuration not stated) next 1%

Param item: `Cc1[nH]c(/C=C2\C(=O)Nc3ccc(F)cc32)c(C)c1C(=O)NCC(=O)O` 6.3%

Then this molecule: CCN(CC)CCNC(=O)c1c(C)[nH]c(CC2C(=O)Nc3ccc(F)cc32)c1C (configuration not stated) 1.5%

----------
experiment: Cmax in female cynomolgus monkey plasma at 6 mg/kg, po administered as single dose by LC/MS/MS analysis; type: ADME, organism-based, Macaca fascicularis; parameters: dose 6 mg/kg, dosed compound name [14C]Sunitinib, route oral
value-type: Cmax (ng/mL)
Entry rule: numbers only, all in ng/mL.

Can you look up the measured Cmax of `CCN(CC)CCNC(=O)c1c(C)[nH]c(/C=C2\C(=O)Nc3ccc(F)cc32)c1C` for me? 83

----------
assay: AUC (0 to infinity) in female Sprague-Dawley rat plasma at 15 mg/kg, po administered as single dose by LC/MS/MS analysis; type: ADME, organism-based; set-up: time infinity, dose 15 mg/kg, dosed compound name [14C]Sunitinib, route oral
value-type: AUC(0-inf)
Don't forget the unit after the number, please.

Which measured AUC(0-inf) value corresponds to `CCN(CC)CCNC(=O)c1c(C)[nH]c(/C=C2\C(=O)Nc3ccc(F)cc32)c1C` ? 24000 ng·h/mL

----------
assay: Apparent oral clearance in human plasma at 50 mg, po administered as single dose by LC/MS/MS analysis; type: ADME, organism-based; set-up: dosed compound name [14C]Sunitinib
value-type: CL/F (mL/min)
// units = mL/min; emit number, no label

# query: CL/F of entry `CCN(CC)CCNC(=O)c1c(C)[nH]c(/C=C2\C(=O)Nc3ccc(F)cc32)c1C` 832

----------
assay: Volume of distribution at steady state in female Sprague-Dawley rat plasma at 5 mg/kg, iv administered as single dose by LC/MS/MS analysis; format: ADME, organism-based; design: dose 5 mg/kg, dosed compound name [14C]Sunitinib, route intravenous; settings: read-out: Vdss
value-type: Vd (L/kg)
Write the number in L/kg without appending the unit.

Consider the compound `CCN(CC)CCNC(=O)c1c(C)[nH]c(/C=C2\C(=O)Nc3ccc(F)cc32)c1C` and give its measured Vd. 3.36

----------
assay: AUC (0 to infinity) in human plasma at 50 mg, po administered as single dose by LC/MS/MS analysis; type: ADME, organism-based; parameters: dose 50 mg, route oral, time infinity, dosed compound name [14C]Sunitinib
value-type: AUC(0-inf)

What does the data say about its AUC(0-inf)? Entry: CCN(CC)CCNC(=O)c1c(C)[nH]c(/C=C2\C(=O)Nc3ccc(F)cc32)c1C [SUNITINIB] 1060 ng·h/mL

----------
experiment: Cmax in male Sprague-Dawley rat plasma at 15 mg/kg, po administered as single dose by LC/MS/MS analysis; type: ADME, organism-based; design: dose 15 mg/kg, dosed compound name [14C]Sunitinib, route oral
value-type: Cmax (µg/mL)
Output spec: scalar in µg/mL, unitless text.

Sample CCN(CC)CCNC(=O)c1c(C)[nH]c(/C=C2\C(=O)Nc3ccc(F)cc32)c1C [SUNITINIB] — what was its Cmax? 0.963

----------
test: Tmax in male Sprague-Dawley rat plasma at 15 mg/kg, po administered as single dose by LC/MS/MS analysis; type: ADME, organism-based; parameters: dose 15 mg/kg, dosed compound name [14C]Sunitinib, route oral
value-type: Tmax (h)
Please reply with the bare figure in h and do not write the unit itself.

Can you share its Tmax? I mean this compound: `CCN(CC)CCNC(=O)c1c(C)[nH]c(/C=C2\C(=O)Nc3ccc(F)cc32)c1C` 3

----------
assay: Tmax in human plasma at 50 mg, po administered as single dose by LC/MS/MS analysis; type: ADME, organism-based; parameters: dosed compound name [14C]Sunitinib
value-type: Tmax (h)
Form entry: value (h) — number only.

Bench note: what Tmax did CCN(CC)CCNC(=O)c1c(C)[nH]c(/C=C2\C(=O)Nc3ccc(F)cc32)c1C [SUNITINIB] show? 8

----------
test: Cmax in female Sprague-Dawley rat plasma at 5 mg/kg, iv administered as single dose by LC/MS/MS analysis; format: ADME, organism-based; set-up: dose 5 mg/kg, dosed compound name [14C]Sunitinib, route intravenous
value-type: Cmax (ng/mL)
// units = ng/mL; emit number, no label

Which Cmax value is on record for CCN(CC)CCNC(=O)c1c(C)[nH]c(/C=C2\C(=O)Nc3ccc(F)cc32)c1C [SUNITINIB] ? 1820

----------
assay: Tmax in female Sprague-Dawley rat plasma at 15 mg/kg, po administered as single dose by LC/MS/MS analysis; format: ADME, organism-based; parameters: dose 15 mg/kg, dosed compound name [14C]Sunitinib, route oral
value-type: Tmax (h)
Response body: numeric value in h, unit text excluded.

Query (compound): `CCN(CC)CCNC(=O)c1c(C)[nH]c(/C=C2\C(=O)Nc3ccc(F)cc32)c1C` ; field requested: Tmax 4

----------
experiment: Terminal half life in human plasma at 50 mg, po administered as single dose by LC/MS/MS analysis; assay type: ADME, organism-based; parameters: dosed compound name [14C]Sunitinib; conditions: read-out: beta t1/2 (converted)
value-type: half-life
Answer as a quantity: numeral, then unit.

// half-life lookup, key: CCN(CC)CCNC(=O)c1c(C)[nH]c(/C=C2\C(=O)Nc3ccc(F)cc32)c1C [SUNITINIB] 50.9 h

----------
experiment: Clearance in female Sprague-Dawley rat plasma at 5 mg/kg, iv administered as single dose by LC/MS/MS analysis; type: ADME, organism-based; design: dose 5 mg/kg, dosed compound name [14C]Sunitinib, route intravenous
value-type: clearance (mL/min/kg)
Report the figure in mL/min/kg without appending any unit label.

So what's the measured clearance for this one? `CCN(CC)CCNC(=O)c1c(C)[nH]c(/C=C2\C(=O)Nc3ccc(F)cc32)c1C` 13

----------
experiment: Apparent terminal half life in male Sprague-Dawley rat plasma at 15 mg/kg, po administered as single dose by LC/MS/MS analysis; assay type: ADME, organism-based; design: dose 15 mg/kg, dosed compound name [14C]Sunitinib, route oral; settings: read-out: t1/2 lambda z (converted)
value-type: half-life (h)
Write it as a number; the unit h goes unstated.

Name the reported half-life value associated with the compound `CCN(CC)CCNC(=O)c1c(C)[nH]c(/C=C2\C(=O)Nc3ccc(F)cc32)c1C` 8

----------
test: Tmax in male cynomolgus monkey plasma at 6 mg/kg, po administered as single dose by LC/MS/MS analysis; format: ADME, organism-based, Macaca fascicularis; design: dose 6 mg/kg, dosed compound name [14C]Sunitinib, route oral
value-type: Tmax (h)
Your answer is read as h, so omit the unit and give the number.

Fill in: Tmax of CCN(CC)CCNC(=O)c1c(C)[nH]c(/C=C2\C(=O)Nc3ccc(F)cc32)c1C [SUNITINIB] is ___ 5

Recorded values, source ChEMBL document CHEMBL3525900.
